Biological target: Androgen receptor (Homo sapiens) (UniProt P10275)
Sequence (P10275 whole entry, looked up): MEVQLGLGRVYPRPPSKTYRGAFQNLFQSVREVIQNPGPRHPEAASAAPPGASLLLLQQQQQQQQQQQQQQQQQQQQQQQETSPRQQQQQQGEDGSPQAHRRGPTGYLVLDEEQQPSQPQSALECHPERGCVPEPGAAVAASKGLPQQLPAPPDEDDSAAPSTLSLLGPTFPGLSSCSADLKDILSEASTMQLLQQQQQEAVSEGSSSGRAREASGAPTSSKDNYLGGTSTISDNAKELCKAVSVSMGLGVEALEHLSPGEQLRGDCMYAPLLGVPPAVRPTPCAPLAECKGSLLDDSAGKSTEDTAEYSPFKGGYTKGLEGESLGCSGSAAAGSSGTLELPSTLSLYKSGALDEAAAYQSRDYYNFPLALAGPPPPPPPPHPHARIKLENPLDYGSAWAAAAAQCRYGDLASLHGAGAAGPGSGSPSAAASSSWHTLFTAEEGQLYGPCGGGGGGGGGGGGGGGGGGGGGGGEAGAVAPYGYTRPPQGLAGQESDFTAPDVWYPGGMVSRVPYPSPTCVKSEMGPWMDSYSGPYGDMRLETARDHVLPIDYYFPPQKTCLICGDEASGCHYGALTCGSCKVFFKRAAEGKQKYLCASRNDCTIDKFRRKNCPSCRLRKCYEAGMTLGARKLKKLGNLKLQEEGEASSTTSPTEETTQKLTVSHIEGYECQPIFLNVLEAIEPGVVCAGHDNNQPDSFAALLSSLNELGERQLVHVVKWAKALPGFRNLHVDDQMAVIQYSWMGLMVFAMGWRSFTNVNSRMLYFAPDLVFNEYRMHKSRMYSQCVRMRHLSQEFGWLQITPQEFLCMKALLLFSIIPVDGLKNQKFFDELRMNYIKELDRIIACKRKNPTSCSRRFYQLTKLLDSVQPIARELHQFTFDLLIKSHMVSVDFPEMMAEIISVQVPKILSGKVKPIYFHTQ
Assay: qHTS assay to identify small molecule agonists of the androgen receptor (AR) signaling pathway in the presence of an antagonist (AID 1259381); note: nearly all actives have a fitted effect of over 15% in size
Details: MDA-kb2 MMTV-luciferase, AR agonist + nilutamide, 16 h; series mostly up to 92.4 µM
Active and inactive are the calls of the source. Calls come from the whole dose curve.
Possible outcomes: 1 (active), -1 (inactive)

MOLECULE	TARGET_SYSTEM	ASSIGNED_LABEL
Nc1ccc(F)cc1F	Androgen receptor (Homo sapiens) (UniProt P10275)	-1
CCC(C(=O)O)c1ccc(N2Cc3ccccc3C2=O)cc1 (stereo not drawn)	Androgen receptor (Homo sapiens) (UniProt P10275)	-1
O=C(OCCN1CCOCC1)c1cccnc1Nc1cccc(C(F)(F)F)c1	Androgen receptor (Homo sapiens) (UniProt P10275)	-1
CC1(C)[C@@H]2CC[C@]3(C2)[C@@H]1C(=O)CCC3(C)C	Androgen receptor (Homo sapiens) (UniProt P10275)	-1
CCC1=C(C)CN(C(=O)NCCc2ccc(S(=O)(=O)NC(=O)NC3CCC(C)CC3)cc2)C1=O (stereo not drawn)	Androgen receptor (Homo sapiens) (UniProt P10275)	-1
O=C(C1CCCCC1)N1CC(=O)N2CCCc3ccccc3C2C1 (stereo not drawn)	Androgen receptor (Homo sapiens) (UniProt P10275)	-1
CCCCCCCCCCCCCCCCC(=O)O	Androgen receptor (Homo sapiens) (UniProt P10275)	-1
O=c1[nH][nH]c2ccccc12	Androgen receptor (Homo sapiens) (UniProt P10275)	-1
OCCCO	Androgen receptor (Homo sapiens) (UniProt P10275)	-1
O=S(=O)(O)c1cc(Cl)c(Cl)cc1Cl	Androgen receptor (Homo sapiens) (UniProt P10275)	-1
O=C(c1ccco1)N1CCNCC1	Androgen receptor (Homo sapiens) (UniProt P10275)	-1
CC[C@H](NC(C)C)[C@H](O)c1ccc(O)c2[nH]c(=O)ccc12	Androgen receptor (Homo sapiens) (UniProt P10275)	-1
CCCCCCCCOCCCN	Androgen receptor (Homo sapiens) (UniProt P10275)	-1
NC(=O)c1ccccc1	Androgen receptor (Homo sapiens) (UniProt P10275)	-1
Cc1nc(C)c(C)nc1C	Androgen receptor (Homo sapiens) (UniProt P10275)	-1
O=C(O)c1cccc(C(=O)O)c1C(=O)O	Androgen receptor (Homo sapiens) (UniProt P10275)	-1
NCCOCCOCCN	Androgen receptor (Homo sapiens) (UniProt P10275)	-1
N#C[C@@H]1CC(F)(F)CN1C(=O)CNC1CC2CCC(C1)N2c1ncccn1 (stereo partly drawn)	Androgen receptor (Homo sapiens) (UniProt P10275)	-1
CCOc1ccc2c(c1)C(C)CC(C)(C)N2 (stereo not drawn)	Androgen receptor (Homo sapiens) (UniProt P10275)	-1
O=C(c1ccc(Cl)cc1)c1ccc(Cl)cc1	Androgen receptor (Homo sapiens) (UniProt P10275)	-1
O=C(Nc1ccccc1)c1cc([N+](=O)[O-])ccc1Cl	Androgen receptor (Homo sapiens) (UniProt P10275)	-1
Cc1ccc(NC(=O)c2ccc(CN3CCN(C)CC3)cc2)cc1Nc1nccc(-c2cccnc2)n1	Androgen receptor (Homo sapiens) (UniProt P10275)	-1
CCOCCn1c(N2CCCN(C)CC2)nc2ccccc21	Androgen receptor (Homo sapiens) (UniProt P10275)	-1
CCC(=O)O[C@]1(C(=O)COC)[C@@H](C)C[C@H]2[C@@H]3CCC4=CC(=O)C=C[C@]4(C)C3(F)[C@@H](O)C[C@@]21C (stereo partly drawn)	Androgen receptor (Homo sapiens) (UniProt P10275)	1
CCN(CC)CC(=O)OCC(=O)[C@@]1(O)CC[C@H]2[C@@H]3CCC4=CC(=O)CC[C@]4(C)[C@H]3[C@@H](O)C[C@@]21C	Androgen receptor (Homo sapiens) (UniProt P10275)	1
O=C(O)c1ccncc1	Androgen receptor (Homo sapiens) (UniProt P10275)	-1
NC(=O)c1ccccc1C(N)=O	Androgen receptor (Homo sapiens) (UniProt P10275)	-1
FC(F)(Cl)C(F)(Cl)Cl	Androgen receptor (Homo sapiens) (UniProt P10275)	-1

###

Experiment: qHTS assay for small molecule disruptors of the mitochondrial membrane potential (AID 720635)
Settings: HepG2 mitochondrial membrane potential, Mito-MPS dye ratio; series mostly up to 83.2 µM
Inconclusive results are not listed. Active and inactive are the calls of the source. The call rests on the fitted dose curve; in most records, active means well fitted inhibition curve with a large enough effect in the signal ratio in the repeat runs; inconclusive means weak or mixed curves, or effect the other way; inactive means flat fitted curve, though single readings scatter; the % refers to the signal ratio.
Classes used: t (active), f (inactive)

MOLECULE	ASSIGNED_LABEL
NC(=O)c1ccccc1C(N)=O	t
CC[C@H](NC(C)C)[C@H](O)c1ccc(O)c2[nH]c(=O)ccc12	f
CCCC1CCOC(C)S1 (stereo not drawn)	f
CC(C)CC(C)(C)C	f
CC(C)=CCC/C(C)=C/C=N/O	f
O=[N+]([O-])c1cccc(I)c1	f
O=[N+]([O-])c1ccccc1CCO	f
C/C(=C(\CCO)SS/C(CCO)=C(\C)N(C=O)Cc1cnc(C)nc1N)N(C=O)Cc1cnc(C)nc1N	f
Nc1nc(Cl)nc2c1ncn2[C@H]1C[C@H](O)[C@@H](CO)O1	f
COc1ccc(/C=C/c2cc(OC)cc(=O)o2)cc1	f
COc1ccc(C(=O)c2ccc(C)cc2)c(O)c1	t
COc1ccc(/C=C/S(=O)(=O)NC(=O)c2ccc(C)cc2Cl)cc1	t
CCC(=O)O[C@@H]1C[C@H]2CC[C@]1(C)C2(C)C	f
NC(=O)c1ccccc1	f
Cc1ccc2c(Cl)cc(Cl)c(O)c2n1	t
CC(C)Oc1ccccc1O	f
CCOC(OCC)OCC	f
C=Cc1ccc(C=C)cc1	f
C=CC(=O)OCCCCCCCCCC	f
O=Cc1ccc([N+](=O)[O-])cc1	f
CC(O)C(C)O (stereo not drawn)	f
OCCOc1cccc(OCCO)c1	f
CC1(C)C(=O)NC(=O)N1CO	f
Cc1cccc(C)c1NC(=O)CN1CCCC1	f
C=CC(C)(O)CC/C=C(/C)CCC=C(C)C (stereo not drawn)	f
CC(C)CCCCCCCOC(=O)c1ccc(C(=O)OCCCCCCCC(C)C)c(C(=O)OCCCCCCCC(C)C)c1	f
O=C1CCCN1CCO	f
COC(=O)c1cc(Cl)ccc1[N+](=O)[O-]	f
CC(C)(C)N	f
CC(C(=O)O)c1ccc2c(c1)Cc1cccnc1O2 (stereo not drawn)	f
O=C(O)CNc1ccccc1	f
CCc1ccc2c(c1)C(=O)c1ccccc1C2=O	t
CCCCCCOC(=O)c1ccccc1	f
CCc1ccc(C(=O)C(C)CN2CCCCC2)cc1 (stereo not drawn)	f
c1ccc(CCNc2nc(-c3ccccc3)cs2)cc1	t
CCCCCC1CCC(=O)O1 (stereo not drawn)	f
CC1(C)CC(=O)CC(C)(C)N1	f
O=C1C=CCCC1	f
CCCC1CCCC(=O)O1 (stereo not drawn)	f
CCC(CC)C(=O)O	f
O=C1OC(=O)C2CC=CCC12 (stereo not drawn)	f
CCC[Si](OC)(OC)OC	f
CC(=O)CC/C=C(\C)CC/C=C(\C)CC/C=C(\C)CCC=C(C)C	f
CC(=O)Nc1ccn(C2COC(COC(=O)c3ccccc3)O2)c(=O)n1 (stereo not drawn)	f
Cc1ccc(NC(=O)c2ccc(CN3CCN(C)CC3)cc2)cc1Nc1nccc(-c2cccnc2)n1	t
CC(C)NC(=O)c1ccccc1N	f
CCCCCCCCCCCC(=O)OCC	f
c1ccc(CN(Cc2ccccc2)Cc2ccccc2)cc1	t

###

Test: qHTS assay to identify small molecule antagonists of the sonic hedgehog signaling (Shh) pathway (AID 1259369); note: nearly all actives have a fitted effect of over 45% in size
Conditions: NIH/3T3 Gli1-Luc reporter, Shh antagonist, luminescence 24 h; series mostly up to 92.4 µM
Records with an inconclusive call do not appear. Calls of active or inactive are those of the source. The call rests on the fitted dose curve.
Outcome codes: 1.0 (active), 0.0 (inactive)

COMPOUND	ASSIGNED_LABEL
O=C(O)c1ccc2cc(O)ccc2c1	0.0
O=C(OC1C[C@H]2CC[C@@H](C1)[N+]21CCCC1)C(O)(c1ccccc1)c1ccccc1 (some centres not stated)	0.0
COc1ccc(/C(C)=C/C(=O)O)c(OC)c1	0.0
CC1(C)C(=O)NC(=O)N1CO	0.0
Cc1nc(C)c(C)nc1C	0.0
O=C(c1ccc(Cl)cc1)c1ccc(Cl)cc1	0.0
COC(=O)/C=C/C(C)=C\C=C\C(C)=C\C=C\C=C(C)\C=C\C=C(C)\C=C\C(=O)O	0.0
CC[C@H](NC(C)C)[C@H](O)c1ccc(O)c2[nH]c(=O)ccc12	0.0
CC(C)(C(=O)O)c1ccc(C(O)CCCN2CCC(C(O)(c3ccccc3)c3ccccc3)CC2)cc1 (configuration not stated)	0.0
CCOC(=O)CC(O)(CC(=O)OCC)C(=O)OCC	1.0
CS(C)=O	1.0
COC(=O)c1cc(Cl)ccc1[N+](=O)[O-]	0.0

###

Assay: A CellTox Green Cytotoxicity Assay to monitor cytotoxicity in HepG2 cells - 40 hour (AID 1224879); note: nearly all actives have a fitted effect of over 40% in size
Conditions: CellTox Green fluorescence; series mostly up to 76.8 µM
Records with an inconclusive call do not appear. Active and inactive are the calls of the source. The call rests on the fitted dose curve; in most records, active means well fitted activation curve with a large enough effect in the repeat runs; inconclusive means weak or mixed curves; inactive means flat fitted curve, though single readings scatter.
Possible outcomes: TRUE = active, FALSE = inactive

COMPOUND	ASSIGNED_LABEL
CCC(C(=O)O)c1ccc(N2Cc3ccccc3C2=O)cc1 (stereo not given)	FALSE
O=C(O)COCC(=O)O	FALSE
Cc1cc(C)n(CO)n1	FALSE
CO[C@@H]1[C@@H](O[C@@H]2O[C@H](C)[C@@H](O[C@H]3C[C@@](C)(O)[C@@H](O)[C@H](C)O3)[C@H](N(C)C)[C@H]2O)[C@@H](CC=O)C[C@@H](C)[C@@H](O[C@@H]2CC[C@H](N(C)C)[C@@H](C)O2)/C=C/C=C/C[C@@H](C)OC(=O)C[C@H]1OC(C)=O	FALSE
CC(C)Cc1nccs1	FALSE
CC(C)CCCCCCCOC(=O)c1ccc(C(=O)OCCCCCCCC(C)C)c(C(=O)OCCCCCCCC(C)C)c1	FALSE
CC(O)CN (stereo not given)	FALSE
O=C(O)c1ccncc1	FALSE
CCCCCCCCCC(C)C=O (stereo not given)	TRUE
O=C(O)c1c2ccccc2cc2ccccc12	FALSE
CC(=O)Nc1ccn(C2COC(COC(=O)c3ccccc3)O2)c(=O)n1 (stereo not given)	FALSE
COC(=O)C(C)(C)C	FALSE
Nc1ncnc2c1ncn2[C@@H]1O[C@H](CO)[C@@H](O)[C@H]1O	FALSE
O=C(O)c1cc(C(=O)O)c(C(=O)O)cc1C(=O)O	FALSE
C=CC(=O)OCCCCCCCCCC	FALSE
C/C(=C(\CCO)SS/C(CCO)=C(\C)N(C=O)Cc1cnc(C)nc1N)N(C=O)Cc1cnc(C)nc1N	FALSE
C=C[Si](OCC)(OCC)OCC	FALSE
O=[N+]([O-])c1ccccc1CCO	FALSE
CCCCCCC/C=C/C=O	FALSE
CCc1c(C)[nH]c2c1C(=O)C(CN1CCOCC1)CC2 (stereo not given)	FALSE
